# assay-system: CYP450 (Homo sapiens)
# Sequence (P11712 whole entry): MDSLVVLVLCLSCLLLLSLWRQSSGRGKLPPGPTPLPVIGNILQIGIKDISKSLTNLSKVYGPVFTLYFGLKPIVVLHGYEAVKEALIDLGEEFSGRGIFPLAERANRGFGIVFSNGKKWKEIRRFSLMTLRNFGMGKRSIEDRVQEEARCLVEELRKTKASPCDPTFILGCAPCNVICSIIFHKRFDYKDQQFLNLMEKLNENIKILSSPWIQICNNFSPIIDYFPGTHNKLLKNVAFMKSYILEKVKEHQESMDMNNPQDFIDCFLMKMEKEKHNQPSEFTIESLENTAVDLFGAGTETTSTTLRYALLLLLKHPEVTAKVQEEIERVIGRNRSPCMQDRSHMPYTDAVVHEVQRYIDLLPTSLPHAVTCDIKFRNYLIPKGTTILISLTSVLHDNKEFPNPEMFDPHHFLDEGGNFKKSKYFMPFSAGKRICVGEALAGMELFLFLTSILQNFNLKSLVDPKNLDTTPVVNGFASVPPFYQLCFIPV
# assay-overview: Time-dependent inhibition of cytochromes (CYP450 TDI)
# Assay type: in vitro ADME
# test-conditions: CYP2C9 (diclofenac probe); 30 min preincubation; human hepatic microsomes
parameter-measured: IC50

Value lookup for IC50; key = C#Cc1cc(Nc2nccc(Oc3ccc(NC(=O)Nc4cc(C(C)(C)C)nn4-c4ccc(OC)cc4)c4ccccc34)n2)cc(C(=O)NCCN2CCOCC2)c1 > 15 µM

---

Record form. Attribute: IC50. Fill in for each entry.
# assay-system: cSrc (Homo sapiens, UniProt P12931)
# Sequence (P12931 whole entry): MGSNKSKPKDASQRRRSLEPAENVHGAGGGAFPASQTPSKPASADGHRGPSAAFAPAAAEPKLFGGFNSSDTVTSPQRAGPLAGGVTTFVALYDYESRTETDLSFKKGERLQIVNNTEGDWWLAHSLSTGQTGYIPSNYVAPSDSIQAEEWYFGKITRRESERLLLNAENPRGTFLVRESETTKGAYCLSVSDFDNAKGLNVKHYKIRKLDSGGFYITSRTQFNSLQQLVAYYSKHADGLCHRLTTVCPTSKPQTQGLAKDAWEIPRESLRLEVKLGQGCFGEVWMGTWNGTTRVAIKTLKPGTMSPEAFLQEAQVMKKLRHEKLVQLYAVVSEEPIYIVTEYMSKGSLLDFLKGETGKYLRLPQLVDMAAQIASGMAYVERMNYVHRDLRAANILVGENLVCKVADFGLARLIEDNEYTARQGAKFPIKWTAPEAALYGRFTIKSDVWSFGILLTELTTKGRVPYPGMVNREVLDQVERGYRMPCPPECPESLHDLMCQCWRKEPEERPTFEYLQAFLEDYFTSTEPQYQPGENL
# assay-overview: c-Src enzyme inhibition (FRET)
# Type: biochemical
# test-conditions: Table 4a2, different laboratory

Param readout = IC50; param system = cSrc (Homo sapiens, UniProt P12931); param query = COc1cc(Nc2cc(Oc3ccc(NC(=O)Nc4cc(C(C)(C)C)nn4-c4ccc(C)cc4)c4ccccc34)ccn2)cc(C(=O)NCCN2CCOCC2)c1 ; response: value 27 nM

Do the same for COc1ccc(-n2nc(C(C)C)cc2NC(=O)Nc2ccc(Oc3ccnc(Nc4cc(OC)cc(C(=O)NCCN5CCOCC5)c4)n3)c3ccccc23)cc1 please 8 nM

Now the same for C#Cc1cc(Nc2nccc(Oc3ccc(NC(=O)Nc4cc(C(C)(C)C)nn4-c4ccc(C)cc4)c4ccccc34)n2)cc(C(=O)N[C@H](C)CN2CCOCC2)c1 26 nM

Request: C#Cc1cc(Nc2nccc(Oc3ccc(NC(=O)Nc4cc(C(C)(C)C)nn4-c4ccc(OC)cc4)c4ccccc34)n2)cc(C(=O)NCCOC)c1 15 nM

What about this compound? COc1cc(Nc2nccc(Oc3ccc(NC(=O)Nc4cc(C(F)(F)C(F)(F)F)nn4-c4ccc(C)cc4)c4ccccc34)n2)cc(C(=O)NCCN2CCOCC2)c1 21 nM

---

# assay-system: CYP3A4 (Homo sapiens, UniProt P08684)
# Sequence (P08684 whole entry): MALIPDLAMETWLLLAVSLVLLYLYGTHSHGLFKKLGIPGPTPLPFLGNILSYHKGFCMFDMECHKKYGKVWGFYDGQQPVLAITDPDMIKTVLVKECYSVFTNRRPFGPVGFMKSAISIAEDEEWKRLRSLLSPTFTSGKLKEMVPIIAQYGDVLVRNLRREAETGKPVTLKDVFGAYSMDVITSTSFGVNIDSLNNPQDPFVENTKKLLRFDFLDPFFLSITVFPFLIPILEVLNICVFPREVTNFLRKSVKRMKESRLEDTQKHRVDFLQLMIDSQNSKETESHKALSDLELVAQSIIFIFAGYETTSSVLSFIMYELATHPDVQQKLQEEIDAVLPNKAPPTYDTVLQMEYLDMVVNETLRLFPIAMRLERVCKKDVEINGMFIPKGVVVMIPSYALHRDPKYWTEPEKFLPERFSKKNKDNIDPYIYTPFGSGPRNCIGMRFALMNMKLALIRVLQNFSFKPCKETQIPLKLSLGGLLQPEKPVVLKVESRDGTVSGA
# assay-overview: Time-dependent inhibition of cytochromes (CYP450 TDI)
# Type: in vitro ADME
# test-conditions: human, pooled human liver microsomes, pH 7.4, probe midazolam, CYP3A4 (midazolam probe); 30 min preincubation; 15 μM; human hepatic microsomes; read-out: 15 μM % Inh
parameter-measured: inhibition at 15 µM (%)
Provide the reading as a plain figure in %.

Lab note: need inhibition at 15 µM for C#Cc1cc(Nc2nccc(Oc3ccc(NC(=O)Nc4cc(C(C)(C)C)nn4-c4ccc(OC)cc4)c4ccccc34)n2)cc(C(=O)NCCN2CCOCC2)c1 [Example 77] on CYP3A4 (Homo sapiens, UniProt P08684), anyone have it? 35

---

Please provide measured IC50 for the entries that follow.
# assay-system: UniProt:P12931
# assay-overview: c-Src enzyme inhibition (FRET)
# Format: biochemical
# test-conditions: Table 4a1
Quick reminder: number only, in nM, skip the unit.

Looking for the measured IC50 of COc1ccc(-n2nc(C(C)C)cc2NC(=O)Nc2ccc(Oc3ccnc(Nc4cc(Cl)cc(C(=O)NCCN5CCOCC5)c4)n3)c3ccccc23)cc1 [Example 61] , can you help? 9

Please do the same for Cc1ccc(-n2nc(C(C)(C)C)cc2NC(=O)Nc2ccc(Oc3ccnc(Nc4cc(C)cc(C(N)=O)c4)n3)c3ccccc23)cc1 [Example 40] as well. 3

COc1cc(Nc2nccc(Oc3ccc(NC(=O)Nc4cc(C(F)(F)C(F)(F)F)nn4-c4ccc(C)cc4)c4ccccc34)n2)cc(C(=O)NCCN2CCOCC2)c1 [Example 9] , same question. 2

Can you handle Cc1ccc(-n2nc(C(C)(C)C)cc2NC(=O)Nc2ccc(Oc3ccnc(Nc4cccc(C(=O)NCCN5CCOCC5)c4)n3)c3ccccc23)cc1 [Example 3] next? 1

Likewise for COc1ccc(-n2nc(C(C)C)cc2NC(=O)Nc2ccc(Oc3ccnc(Nc4ccc(C(=O)NCCN5CCOCC5)cc4OC)n3)c3ccccc23)cc1 [Example 38] ? 9

Now consider COc1ccc(Nc2nccc(Oc3ccc(NC(=O)Nc4cc(C(C)C)nn4-c4ccc(C)cc4)c4ccccc34)n2)cc1C(=O)NCCN1CCOCC1 [Example 70] . 2

Item: CCCNC(=O)c1cccc(Nc2nccc(Oc3ccc(NC(=O)Nc4cc(C(C)(C)C)nn4-c4ccc(OC)cc4)c4ccccc34)n2)c1 [Example 17] 3

Check COc1ccc(C(=O)NCCO)cc1Nc1nccc(Oc2ccc(NC(=O)Nc3cc(C(C)(C)C)nn3-c3ccc(C)cc3)c3ccccc23)n1 [Example 33] too. 3

---

Provide the reported IC50 of each item.
# assay-system: Syk (Homo sapiens, UniProt P43405)
# assay-overview: Syk enzyme inhibition (FRET)
# Assay type: biochemical
# test-conditions: Table 4a1
Lab note: write values as number then unit, every time.

Endpoint output: IC50 of COc1ccc(-n2nc(C(C)C)cc2NC(=O)Nc2ccc(Oc3ccnc(Nc4cc(OC)cc(C(=O)NCCN5CCOCC5)c4)c3)c3ccccc23)cc1 . Value? 16 nM

Then what about the molecule Cc1ccc(-n2nc(C(C)C)cc2NC(=O)Nc2ccc(Oc3ccnc(Nc4cc(Cl)cc(C(=O)NCCN5CCOCC5)c4)n3)c3ccccc23)cc1 ? 60 nM

Again, but for CCCNC(=O)c1cccc(Nc2nccc(Oc3ccc(NC(=O)Nc4cc(C(C)(C)C)nn4-c4ccc(OC)cc4)c4ccccc34)n2)c1 35 nM

---

# assay-system: GSK3α (Homo sapiens, UniProt P49840)
# Sequence (P49840 whole entry): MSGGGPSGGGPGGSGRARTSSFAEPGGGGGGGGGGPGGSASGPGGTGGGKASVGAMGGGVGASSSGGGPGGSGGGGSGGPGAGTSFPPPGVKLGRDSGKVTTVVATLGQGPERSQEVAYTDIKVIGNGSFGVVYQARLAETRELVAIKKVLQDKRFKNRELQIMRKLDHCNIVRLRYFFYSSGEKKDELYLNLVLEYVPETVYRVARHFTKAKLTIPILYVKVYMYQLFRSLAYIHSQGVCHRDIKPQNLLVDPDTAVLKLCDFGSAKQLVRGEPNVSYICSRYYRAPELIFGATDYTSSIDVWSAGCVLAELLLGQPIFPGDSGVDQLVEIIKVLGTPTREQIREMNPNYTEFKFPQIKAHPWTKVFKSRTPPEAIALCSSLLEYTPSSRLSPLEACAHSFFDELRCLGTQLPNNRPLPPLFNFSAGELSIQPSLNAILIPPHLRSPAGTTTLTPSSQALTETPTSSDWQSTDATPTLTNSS
# assay-overview: GSK 3α enzyme inhibition (FRET), Method 1
# Type: biochemical
# test-conditions: Table 4a1
Kindly supply the reported pIC50 values for the records listed here.
Keep in mind that pIC50 stands for -log10 of concentration in molar terms.

Look up pIC50 for this compound: COc1cc(Nc2nccc(Oc3ccc(NC(=O)Nc4cc(C(C)(C)C)nn4-c4ccc(OC)nc4)c4ccccc34)n2)cc(C(=O)NCCN2CCOCC2)c1 6.55

Again, but for COc1ccc(Nc2nccc(Oc3ccc(NC(=O)Nc4cc(C(C)C)nn4-c4ccc(C)cc4)c4ccccc34)n2)cc1C(=O)NCCN1CCOCC1 6.28

Then this compound: COc1cc(Nc2nccc(Oc3ccc(NC(=O)Nc4cc(C(F)(F)C(F)(F)F)nn4-c4ccc(C)cc4)c4ccccc34)n2)cc(C(=O)NCCN2CCOCC2)c1 5.10

---

# assay-system: CYP2C9 (Homo sapiens, UniProt P11712)
# Sequence (P11712 whole entry): as the sequence (P11712 whole entry) above
# assay-overview: Time-dependent inhibition of cytochromes (CYP450 TDI)
# Format: in vitro ADME
# test-conditions: human, pooled human liver microsomes, pH 7.4, probe diclofenac, CYP2C9 (diclofenac probe); 0 min preincubation; 15 μM; human hepatic microsomes; read-out: 15 μM % Inh
parameter-measured: inhibition at 15 µM (%)
Number in %, nothing else.

For CYP2C9 (Homo sapiens, UniProt P11712), provide inhibition at 15 µM of C#Cc1cc(Nc2nccc(Oc3ccc(NC(=O)Nc4cc(C(C)(C)C)nn4-c4ccc(OC)cc4)c4ccccc34)n2)cc(C(=O)NCCN2CCOCC2)c1 please. -4

---

Please go through the items and note down their pIC50.
# assay-system: GSK3α (Homo sapiens, UniProt P49840)
# assay-overview: GSK 3α enzyme inhibition (FRET), Method 1
# Format: biochemical
# test-conditions: Table 4a1
# Description: The enzyme inhibitory activities of compounds disclosed herein are determined by FRET using synthetic peptides labelled with both donor and acceptor fluorophores (Z-LYTE, Invitrogen Ltd., Paisley, UK). The following two assay variants are used for determination of GSK 3a inhibition. The inhibitory activities of compounds of the invention against the GSK 3a enzyme isoform (Invitrogen), are evaluated by determining the level of activation/phosphorylation of the target peptide. […]
pIC50: −log10 of the molar value.

Which pIC50 value is on record for COc1ccc(-n2nc(C(C)C)cc2NC(=O)Nc2ccc(Oc3ccnc(Nc4ccc(C(=O)NCCN5CCOCC5)cc4OC)n3)c3ccccc23)cc1 ? < 4.89

What do you have for Cc1ccc(-n2nc(C(C)(C)C)cc2NC(=O)Nc2ccc(Oc3ccnc(Nc4cccc(C(=O)NCCN5CCN(C)CC5)c4)n3)c3ccccc23)cc1 ? 6.55

Entry to check: COc1cc(C(=O)NCCO)ccc1Nc1nccc(Oc2ccc(NC(=O)Nc3cc(C(C)C)nn3-c3ccc(C)cc3)c3ccccc23)n1 < 4.84

Same for COc1ccc(-n2nc(C(C)C)cc2NC(=O)Nc2ccc(Oc3ccnc(Nc4cc(OC)cc(C(=O)NCCN5CCOCC5)c4)n3)c3ccccc23)cc1 < 4.89

And then Cc1ccc(-n2nc(C(C)(C)C)cc2NC(=O)Nc2ccc(Oc3ccnc(Nc4cccc(C(=O)NCCN5CCOCC5)c4)n3)c3ccccc23)cc1 , what is it? 6.54

Item: COc1ccc(-n2nc(C(C)C)cc2NC(=O)Nc2ccc(Oc3ccnc(Nc4cc(C(=O)NCCO)ccc4OC)n3)c3ccccc23)cc1 < 4.85

Item: COc1cc(C(=O)NCCO)ccc1Nc1nccc(Oc2ccc(NC(=O)Nc3cc(C(C)(C)C)nn3-c3ccc(C)cc3)c3ccccc23)n1 < 4.84

Would you mind doing COc1cc(C(=O)NCCN2CCOCC2)ccc1Nc1nccc(Oc2ccc(NC(=O)Nc3cc(C(C)C)nn3-c3ccc(C)cc3)c3ccccc23)n1 as well? < 4.88
